FYI, the data here is from paper PMC10057996.

Catalogue of Vmax (Pi Released/min) values
- Measured Target: FtsZ (Escherichia coli)
- Construct: made in house; host or cells: E. coli
- Protocol Text: FtsZ GTPase assay (BIOMOL Green, Pi release)
- Type: biochemical, E. coli
- Recorded Conditions: in presence of 40 µM compound; 6 µM FtsZ, pH 6.8; untreated 0.63 ± 0.01
A number alone suffices; assume Pi released/min.

| Sample Smiles | Vmax (Pi Released/min), Pi released/min |
| --- | --- |
| Clc1ccc(CNCCc2ccc3c(c2)OCO3)cc1 | 0.60 |
| COc1cccc(CN(C)CCc2ccc3c(c2)OCO3)c1OC | 0.54 |
| CCN(CCc1ccc2c(c1)OCO2)Cc1cccc(OC)c1OC | 0.58 |
| c1ccc2c(CNCCc3ccc4c(c3)OCO4)cccc2c1 | 0.59 |
| CCCCCCN(CCc1ccc2c(c1)OCO2)Cc1cccc(OC)c1OC | 0.35 |

Reported Vmax (Pi Released/min) for `CN(CCc1ccc2c(c1)OCO2)Cc1cccc2ccccc12.Cl` was 0.58

====

- Measured Target: FtsZ (Escherichia coli, UniProt P0A9A6)
- Sequence (P0A9A6 whole entry): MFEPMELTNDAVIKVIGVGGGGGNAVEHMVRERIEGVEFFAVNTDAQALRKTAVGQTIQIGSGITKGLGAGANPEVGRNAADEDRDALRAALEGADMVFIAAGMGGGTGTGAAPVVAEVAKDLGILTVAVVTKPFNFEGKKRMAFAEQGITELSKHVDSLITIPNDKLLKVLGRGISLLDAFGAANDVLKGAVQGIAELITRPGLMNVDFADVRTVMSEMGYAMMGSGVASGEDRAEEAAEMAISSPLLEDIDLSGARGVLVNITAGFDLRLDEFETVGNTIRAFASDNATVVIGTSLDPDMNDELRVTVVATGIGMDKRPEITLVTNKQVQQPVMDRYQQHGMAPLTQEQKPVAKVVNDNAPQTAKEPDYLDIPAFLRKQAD
Parameter Measured: Kd (nM)
Give the number; nM is assumed, so skip it.

Kd for FtsZ (Escherichia coli, UniProt P0A9A6) with input `COc1cccc(CN(C)CCc2ccc3c(c2)OCO3)c1OC` equals 26.6

====

- Measured Target: FtsZ (Escherichia coli, UniProt P0A9A6)
Parameter Measured: pKi
Please express pKi as -log10 of the molar concentration.

Field: example entries. Status: answers known.
| Sample Smiles | pKi |
| --- | --- |
| COc1cccc(CN(C)CCc2ccc3c(c2)OCO3)c1OC | 4.60 |
| CCN(CCc1ccc2c(c1)OCO2)Cc1cccc(OC)c1OC | 4.36 |
| c1ccc2c(CNCCc3ccc4c(c3)OCO4)cccc2c1 | 3.92 |
| Clc1ccc(CNCCc2ccc3c(c2)OCO3)cc1 | 4.39 |

Bench note, FtsZ (Escherichia coli, UniProt P0A9A6): `CN(CCc1ccc2c(c1)OCO2)Cc1cccc2ccccc12.Cl` , pKi reads 4.29
